target: Melatonin receptor type 1A (Homo sapiens, UniProt P48039); assay: Binding affinity to human MT1 expressed in CHO cells; assay type: cell-based
Sequence (P48039 whole entry): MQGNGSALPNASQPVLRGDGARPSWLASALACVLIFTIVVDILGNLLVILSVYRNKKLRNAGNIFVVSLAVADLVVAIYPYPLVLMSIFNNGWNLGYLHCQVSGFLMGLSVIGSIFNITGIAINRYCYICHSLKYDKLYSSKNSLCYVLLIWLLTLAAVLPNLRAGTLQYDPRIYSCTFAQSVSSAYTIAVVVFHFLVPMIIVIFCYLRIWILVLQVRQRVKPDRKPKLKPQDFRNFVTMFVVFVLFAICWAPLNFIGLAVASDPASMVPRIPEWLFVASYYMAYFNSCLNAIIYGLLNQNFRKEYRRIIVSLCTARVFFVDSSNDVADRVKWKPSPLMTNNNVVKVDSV

molSmiles: CCC(=O)NCC[C@@H]1CCc2ccc3c(c21)CCO3
Ki (nM): 0.014

====

assay: Drug concentration in Sprague-Dawley rat brain at 1 mg/kg, po after 60 mins by LC/MS/MS analysis; format: ADME, organism-based; settings: read-out: Ct

compound: CCC(=O)NCC[C@@H]1CCc2ccc3c(c21)CCO3 [RAMELTEON]
concentration at 1 h, ng/g: 17

====

biological target: Melatonin receptor type 1A (Homo sapiens); assay: Displacement of 2-[125l]-lodomelatonin from human MT1 expressed in CHO cell membrane incubated for 150 mins by radioligand binding assay; type: cell membranes
// reported Ki for each item listed

compound: CC(=O)NCC[C@@H]1CCc2ccc3nc(C)oc3c21
Ki, nM: 0.031
//
compound: CC(=O)NCCC1CCc2ccc3nc(-c4ccccc4)oc3c21 (stereo unspecified)
Ki, nM: 1.3
//
compound: CC(=O)NCCC1CCc2ccc3nc(C4CC4)oc3c21 (stereo unspecified)
Ki, nM: 0.39
//
compound: COc1nc2ccc3c(c2o1)C(CCNC(C)=O)CC3 (stereo unspecified)
Ki, nM: 0.45
//
compound: CC(=O)NCCC1CCc2ccn3nc(C)cc3c21 (stereo unspecified)
Ki, nM: 0.2
//
compound: CCc1nc2ccc3c(c2o1)C(CCNC(C)=O)CC3 (stereo unspecified)
Ki, nM: 0.22
//
compound: CC(=O)NCCC1CCc2ccc3ncoc3c21 (stereo unspecified)
Ki, nM: 0.45
//
compound: CC(=O)NCCC1CCc2ccc3nc(C)oc3c21 (racemic)
Ki, nM: 0.067
//
compound: CCC(=O)NCCC1CCc2ccn3nc(C)cc3c21 (stereo unspecified)
Ki, nM: 0.17
//
compound: CCC(=O)NCCC1CCc2ccc3nc(C)sc3c21 (stereo unspecified)
Ki, nM: 0.027
//
compound: CCC(=O)NCCC1CCc2ccc3nc(C)oc3c21 (stereo unspecified)
Ki, nM: 0.067

====

molecular target: Melatonin receptor type 1B (Homo sapiens, UniProt P49286); test: Displacement of 2-[125l]-lodomelatonin from human MT2 expressed in CHO cell membrane incubated for 150 mins by radioligand binding assay; format: cell membranes
Sequence (P49286 whole entry): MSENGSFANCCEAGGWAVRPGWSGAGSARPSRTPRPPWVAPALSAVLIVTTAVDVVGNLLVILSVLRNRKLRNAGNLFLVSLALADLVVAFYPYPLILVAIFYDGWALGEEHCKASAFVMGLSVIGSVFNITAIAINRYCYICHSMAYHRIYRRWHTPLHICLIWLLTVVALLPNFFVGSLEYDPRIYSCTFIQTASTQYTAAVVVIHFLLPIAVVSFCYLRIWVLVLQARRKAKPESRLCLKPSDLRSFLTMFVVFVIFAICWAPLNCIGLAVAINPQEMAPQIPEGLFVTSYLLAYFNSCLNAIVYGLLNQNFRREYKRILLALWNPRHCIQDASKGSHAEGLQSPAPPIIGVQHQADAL
measuredProperty: log10(Ki) (log10 of the value in nM)

molecule: CC(=O)NCCC1CCc2ccn3nc(C)cc3c21 (configuration not stated)
assayedSystem: Melatonin receptor type 1B (Homo sapiens, UniProt P49286)
log10(Ki): 0.15

molecule: CC(=O)NCC[C@@H]1CCc2ccc3nc(C)oc3c21
assayedSystem: Melatonin receptor type 1B (Homo sapiens, UniProt P49286)
log10(Ki): -1.15

molecule: CC(=O)NCC[C@H]1CCc2ccc3nc(C)oc3c21
assayedSystem: Melatonin receptor type 1B (Homo sapiens, UniProt P49286)
log10(Ki): 0.79

molecule: CCc1nc2ccc3c(c2o1)C(CCNC(C)=O)CC3 (configuration not stated)
assayedSystem: Melatonin receptor type 1B (Homo sapiens, UniProt P49286)
log10(Ki): -0.80

molecule: COc1nc2ccc3c(c2o1)C(CCNC(C)=O)CC3 (configuration not stated)
assayedSystem: Melatonin receptor type 1B (Homo sapiens, UniProt P49286)
log10(Ki): -0.82

molecule: CC(=O)NCCC1CCc2ccc3nc(C4CC4)oc3c21 (configuration not stated)
assayedSystem: Melatonin receptor type 1B (Homo sapiens, UniProt P49286)
log10(Ki): -0.82

molecule: CC(=O)NCCC1CCc2ccc3nc(-c4ccccc4)oc3c21 (configuration not stated)
assayedSystem: Melatonin receptor type 1B (Homo sapiens, UniProt P49286)
log10(Ki): -0.64
